# Test system: M2 proton channel of Influenza A virus
# measurement.notes: Selectivity index, ratio of CC50 for MDCK cells to IC50 for M2 proton channel in Influenza A virus (A/Puerto Rico/8/34(H1N1) ) infected in MDCK cells assessed as inhibition of viral infection
# Type: toxicity, cell-based
# condition.label: dog, read-out: Ratio CC50/IC50
attribute.measured: selectivity ratio
// keep it numeric: no unit symbol after the value

# example entries with known answers
* CSc1nc2n(n1)C(O)C([N+](=O)[O-])=NN2 (stereo unspecified) | 7
* CSc1nc2n(n1)C(c1ccc(O)c(O)c1O)C([N+](=O)[O-])=NN2 (stereo unspecified) | 8
* O=[N+]([O-])C1=CNc2ncnn2C1c1ccc(O)c(O)c1 (stereo unspecified) | 9
* O=[N+]([O-])C1=CNc2nc(-c3ccco3)nn2C1c1ccc(O)cc1O (stereo unspecified) | 14

Reported selectivity ratio, molecule O=[N+]([O-])C1=CNc2nc(C(F)(F)F)nn2C1c1ccc(O)c(O)c1 (stereo unspecified) : ____
57

Next up: CSc1nc2n(n1)C(c1ccc(O)c(O)c1)C([N+](=O)[O-])=NN2 (stereo unspecified)
8

Next up: O=[N+]([O-])C1=CNc2nc(C(F)(F)F)nn2C1c1ccc(O)cc1O (stereo unspecified)
43

Next up: O=[N+]([O-])C1=NNc2ncnn2C1c1ccc(O)c(O)c1 (stereo unspecified)
2

Next up: O=[N+]([O-])C1=CNc2nc(C(F)(F)F)nn2C1c1ccc(O)c(O)c1O (stereo unspecified)
8

----------
# measurement.notes: Cytotoxicity against MDCK cells
# Assay type: cell-based, Canis lupus familiaris
# condition.label: dog
Form field: CC50 (one value per entry).
Please reply with the bare figure in µM and do not write the unit itself.

Reported CC50, compound O=[N+]([O-])C1=NNc2ncnn2C1c1ccc(O)c(O)c1O (configuration not stated) : ____
228

----------
# Tested on: M2 proton channel of Influenza A virus
# measurement.notes: Selectivity index, ratio of CC50 for MDCK cells to IC50 for M2 proton channel in Influenza A virus (A/Puerto Rico/8/34(H1N1) ) infected in MDCK cells assessed as inhibition of viral infection
# Assay type: toxicity, cell-based
# condition.label: dog, read-out: Ratio CC50/IC50
// classify: if (selectivity ratio < 4) true (1) else false (0)

Please state whether selectivity ratio is below 4 for O=[N+]([O-])C1=CNc2nc(-c3ccco3)nn2C1
false (0)

Next up: CC(N)C12CC3CC(CC(C3)C1)C2 (stereo unspecified) [RIMANTADINE]
false (0)

----------
Form field: IC50 (one value per entry).
# measurement.notes: Inhibition of M2 proton channel in Influenza A virus (A/Puerto Rico/8/34(H1N1)) infected in MDCK cells assessed as inhibition of viral infection
# Type: cell-based, Influenza A virus (A/Puerto Rico/8/1934(H1N1))
Please reply with the bare figure in µM and do not write the unit itself.

# example entries with known answers
* O=[N+]([O-])C1=CNc2nc(-c3ccco3)nn2C1c1ccc(O)c(O)c1 (stereo unspecified) | 101
* CC(N)C12CC3CC(CC(C3)C1)C2 (stereo unspecified) | 0.3
* O=[N+]([O-])C1=CNc2ncnn2C1c1ccc(O)c(O)c1 (stereo unspecified) | 42
* O=[N+]([O-])C1=CNc2nc(C(F)(F)F)nn2C1c1ccc(O)cc1O (stereo unspecified) | 6
* CCC(CC)O[C@@H]1C=C(C(=O)O)C[C@H](N)[C@H]1NC(C)=O [OSELTAMIVIR CARBOXYLATE] | 13
* O=[N+]([O-])C1=CNc2ncnn2C1O (stereo unspecified) | 28
* CSc1nc2n(n1)C(O)C([N+](=O)[O-])=NN2 (stereo unspecified) | 15
* CSc1nc2n(n1)C(c1ccc(O)c(O)c1O)C([N+](=O)[O-])=NN2 (stereo unspecified) | 26

Reported IC50, molecule O=[N+]([O-])C1=CNc2nc(C(F)(F)F)nn2C1c1ccc(O)c(O)c1O (stereo unspecified) : ____
47

Next up: O=[N+]([O-])C1=NNc2nc(C(F)(F)F)nn2C1c1c(O)cc(O)cc1O (stereo unspecified)
27

Next up: O=[N+]([O-])C1=CNc2nc(-c3ccco3)nn2C1
9

Next up: CSc1nc2n(n1)C(c1c(O)cc(O)cc1O)C([N+](=O)[O-])=NN2 (stereo unspecified)
23

Next up: CSc1nc2n(n1)C(c1ccc(O)c(O)c1)C([N+](=O)[O-])=NN2 (stereo unspecified)
44

Next up: O=[N+]([O-])C1=CNc2nc(C(F)(F)F)nn2C1c1ccc(O)c(O)c1 (stereo unspecified)
21

Next up: O=[N+]([O-])C1=NNc2ncnn2C1c1ccc(O)cc1O (stereo unspecified)
34

----------
# measurement.notes: Cytotoxicity against MDCK cells
# Type: cell-based, Canis lupus familiaris
# condition.label: dog
// classify: if (CC50 < 200 µM) condition met else condition not met

Look over these answered cases.
- O=[N+]([O-])C1=CNc2nc(-c3ccco3)nn2C1c1ccc(O)cc1O (stereo not given): condition met
- O=[N+]([O-])C1=CNc2nc(-c3ccco3)nn2C1c1ccc(O)c(O)c1 (stereo not given): condition not met
- O=[N+]([O-])C1=NNc2nc(C(F)(F)F)nn2C1c1ccc(O)c(O)c1O (stereo not given): condition met
- O=[N+]([O-])C1=CNc2ncnn2C1c1ccc(O)c(O)c1O (stereo not given): condition not met
- CC(N)C12CC3CC(CC(C3)C1)C2 (stereo not given): condition not met

Please state whether CC50 is below 200 µM for CSc1nc2n(n1)C(c1c(O)cc(O)cc1O)C([N+](=O)[O-])=NN2 (stereo not given)
condition not met

Next up: O=[N+]([O-])C1=NNc2nc(C(F)(F)F)nn2C1c1c(O)cc(O)cc1O (stereo not given)
condition not met

Next up: CCC(CC)O[C@@H]1C=C(C(=O)O)C[C@H](N)[C@H]1NC(C)=O [OSELTAMIVIR CARBOXYLATE]
condition met

Next up: O=[N+]([O-])C1=NNc2ncnn2C1c1ccc(O)cc1O (stereo not given)
condition met

----------
# System: M2 proton channel of Influenza A virus
# measurement.notes: Selectivity index, ratio of CC50 for MDCK cells to IC50 for M2 proton channel in Influenza A virus (A/Puerto Rico/8/34(H1N1) ) infected in MDCK cells assessed as inhibition of viral infection
# Assay type: toxicity, cell-based
# condition.label: dog, read-out: Ratio CC50/IC50
attribute.measured: selectivity ratio
// keep it numeric: no unit symbol after the value

# example entries with known answers
- O=[N+]([O-])C1=NNc2ncnn2C1c1ccc(O)cc1O (stereo not given): 3
- O=[N+]([O-])C1=NNc2nc(C(F)(F)F)nn2C1c1ccc(O)c(O)c1O (stereo not given): 7
- O=[N+]([O-])C1=NNc2ncnn2C1c1c(O)cc(O)cc1O (stereo not given): 5
- CSc1nc2n(n1)C(c1c(O)cc(O)cc1O)C([N+](=O)[O-])=NN2 (stereo not given): 39

Reported selectivity ratio, molecule O=[N+]([O-])C1=NNc2nc(C(F)(F)F)nn2C1c1c(O)cc(O)cc1O (stereo not given) : ____
9

Next up: CCC(CC)O[C@@H]1C=C(C(=O)O)C[C@H](N)[C@H]1NC(C)=O [OSELTAMIVIR CARBOXYLATE]
5

Next up: O=[N+]([O-])C1=NNc2ncnn2C1O (stereo not given)
2

Next up: O=[N+]([O-])C1=CNc2ncnn2C1c1ccc(O)c(O)c1O (stereo not given)
1

Next up: O=[N+]([O-])C1=CNc2nc(-c3ccco3)nn2C1c1ccc(O)c(O)c1O (stereo not given)
3

----------
# measurement.notes: Inhibition of M2 proton channel in Influenza A virus (A/Puerto Rico/8/34(H1N1)) infected in MDCK cells assessed as inhibition of viral infection
# Assay type: cell-based, Influenza A virus (A/Puerto Rico/8/1934(H1N1))
Form field: log10 IC50 (one value per entry).
Each number you see is log10 of IC50, and the unit inside the log is µM.

• O=[N+]([O-])C1=CNc2nc(C(F)(F)F)nn2C1c1c(O)cc(O)cc1O (stereo unspecified) = 1.43
• O=[N+]([O-])C1=CNc2nc(C(F)(F)F)nn2C1O (stereo unspecified) = 1.04
• O=[N+]([O-])C1=NNc2ncnn2C1c1ccc(O)c(O)c1 (stereo unspecified) = 3.04
• O=[N+]([O-])C1=CNc2nc(-c3ccco3)nn2C1c1ccc(O)c(O)c1O (stereo unspecified) = 1.99
• O=[N+]([O-])C1=CNc2ncnn2C1c1c(O)cc(O)cc1O (stereo unspecified) = 1.30
• O=[N+]([O-])C1=CNc2ncnn2C1c1ccc(O)c(O)c1O (stereo unspecified) = 2.77

Reported log10 IC50, compound O=[N+]([O-])C1=CNc2nc(-c3ccco3)nn2C1c1ccc(O)cc1O (stereo unspecified) : ____
0.95

Next up: O=[N+]([O-])C1=NNc2nc(C(F)(F)F)nn2C1c1ccc(O)cc1O (stereo unspecified)
1.52

Next up: O=[N+]([O-])C1=NNc2nc(C(F)(F)F)nn2C1O (stereo unspecified)
1.04

Next up: CSc1nc2n(n1)C(c1ccc(O)cc1O)C([N+](=O)[O-])=NN2 (stereo unspecified)
1.26

Source of measurements: ChEMBL document CHEMBL4622861
